Origin of the recorded values: PubChem BioAssay AID463173

- System: DeltatarO mutant
- experimental-details: S. aureus survival, RN4220 and DeltatarO strains – OD600, teichoic acid synthesis inhibitors, primary screen (AID 463173)
- run-parameters: S. aureus RN4220 wild type/DeltatarO growth, OD600, 18 h, hits give low values, screened at 18.75 µg/mL (by protocol)
The whole screen tested about 52,000 compounds, of which about 4,300 (8.3%) were called active. Shown is part of a subset that was picked to be rich in actives.
property-name: survival (%)
State the answer as a number, implicitly in %.

Sample answers from the record:
molecular-string | survival / %
CCOc1ccc(-n2cc(-c3ccccc3)c3c(NCc4ccc(F)cc4)ncnc32)cc1 | 95
Cc1ccc(C)c(NC(=O)Cn2c(=O)n(Cc3ccco3)c(=O)c3ccc(C(=O)NC4CCCC4)cc32)c1 | 95

Prompt: What value of survival has been reported for the following compound? CCOc1ccc(NC(=O)C(=O)NCCc2csc(-c3ccc(C(F)(F)F)cc3)n2)cc1
Completion: 94

* * *

- Test system: DeltatarO mutant
- experimental-details: S. aureus survival, RN4220 and DeltatarO strains – OD600, teichoic acid synthesis inhibitors, primary screen (AID 463173)
- run-parameters: S. aureus RN4220 wild type/DeltatarO growth, OD600, 18 h, hits give low values, screened at 18.75 µg/mL (by protocol)
Hit rate of the full screen: of about 52,000 compounds, about 4,300 (8.3%) were called active. The sample as a whole holds a higher share of actives than the screen did.
Checkbox rule: survival lower than 80% = yes; survival not lower than 80% = no.

Worked set:
compound | cat
Cc1ccc(-c2nnc(Nc3cccc(Cl)c3)c3ccccc23)cc1S(=O)(=O)N1CCCCC1 | yes
CCC(C)(C)C(=O)Nc1ccc(Cl)cc1 | no

Prompt: survival under 80%? Item: Cc1cccc(C)c1NC(=O)CSc1nc(-c2ccccc2)nc2c1Cc1c(CO)cnc(C)c1O2
Completion: no

Prompt: survival under 80%? Item: Cc1ccc(C)c(Cn2c(=O)n(-c3ccc(Cl)cc3)c(=O)c3c(C)c(C)sc32)c1
Completion: yes

Prompt: survival under 80%? Item: CC(=O)c1cccc(NC(=O)C(CC(C)C)NS(=O)(=O)c2ccc3c(c2)CCN3C(C)=O)c1 (stereo not given)
Completion: no

Prompt: survival under 80%? Item: Cc1coc2cc3oc(=O)c(CC(=O)NCCc4ccccc4)c(C)c3cc12
Completion: no

Prompt: survival under 80%? Item: COc1ccc(CCNC(=O)CCCn2c(=O)c3cccn3c3ccc(F)cc32)cc1OC
Completion: yes

Prompt: survival under 80%? Item: CCOc1ccc(-n2c(=O)c3c(C)c(C)sc3n(CC(=O)Nc3ccc(CC)cc3)c2=O)cc1
Completion: yes

* * *

- System: DeltatarO mutant
- experimental-details: S. aureus survival, RN4220 and DeltatarO strains – OD600, teichoic acid synthesis inhibitors, primary screen (AID 463173)
- run-parameters: S. aureus RN4220 wild type/DeltatarO growth, OD600, 18 h, screened at 18.75 µg/mL (by protocol)
About 4,300 (8.3%) of roughly 52,000 compounds were called active. Cut-off read from the data, not from the text of the source: active = survival mostly below about 52% (no sharp cut-off); inactive = mostly above about 56%. The entries come from a sample that favours actives as a whole.
Pick one: active, inactive

Worked set:
molecular-string | study-system | cat
COc1ccc(CNc2nc(-c3ccco3)nn2C(=O)CC(C)C)cc1 | DeltatarO mutant | inactive
CCS(=O)(=O)N1CCc2cc(C(=O)N3CCN(c4ccccc4)CC3)ccc21 | DeltatarO mutant | inactive
COc1cc(Cl)c(C)cc1Nc1nc2ccccc2c2nnc(C)n12 | DeltatarO mutant | inactive
CCS(=O)(=O)N1CCc2cc(C(=O)N3CCN(c4ccc(OC)cc4)CC3)ccc21 | DeltatarO mutant | active

From here, focus on the item given below.
Prompt: What classification did COC(=O)c1cc(OC)c(OC)cc1NC(=O)c1ccc2c(c1)CCN2S(C)(=O)=O end up with in this test?
Completion: active
